Target: hMMP-12
Experiment: MMP inhibition assay (Ki)
# strict inequality: Ki < 3 nM yields 1, everything else yields 0

Worked examples follow.
{"COMPOUND": "CC[N+]1=C(/C=C/C=C/C=C2/N(CCCCCC(=O)NCCCOCCOCCOCCCNC(=O)[C@H](CCC(=O)O)NC(=O)[C@H](CCC(=O)O)NC(=O)[C@H](Cc3cc(-c4ccc(-c5cccc(Cl)c5)cc4)no3)CP(=O)(O)c3ccc(Br)cc3)c3ccc4c(S(=O)(=O)[O-])cc(S(=O)(=O)O)cc4c3C2(C)C)C(C)(C)c2c1ccc1c(S(=O)(=O)O)cc(S(=O)(=O)O)cc21 [probe 1]", "ASSIGNED CLASS": 1}
{"COMPOUND": "NC(=O)[C@H](CCC(=O)O)NC(=O)[C@H](CCC(=O)O)NC(=O)[C@H](Cc1cc(-c2ccc(-c3cccc(Cl)c3)cc2)no1)CP(=O)(O)c1ccc(Br)cc1 [RXP470.1, reference compound]", "ASSIGNED CLASS": 1}
{"COMPOUND": "CC1(C)C(=CC=C2CCCC(C=CC3=[N+](CCC[N+](C)(C)C)c4ccc(S(=O)(=O)[O-])cc4C3(C)C)=C2Oc2ccc(CCC(=O)NCCCOCCOCCOCCCNC(=O)C(CCC(=O)[O-])NC(=O)C(CCC(=O)O)NC(=O)C(Cc3cc(-c4cccc(Oc5ccccc5)c4)no3)CP(=O)(O)c3ccc(Br)cc3)cc2)N(CCC[N+](C)(C)C)c2ccc(S(=O)(=O)[O-])cc21 (centres unmarked) [probe 4]", "ASSIGNED CLASS": 0}

# TODO verify Ki < 3 nM strictly for this compound: CC[N+]1=C(/C=C/C=C2/N(CCCCCC(=O)NCCCOCCOCCOCCCNC(=O)[C@H](CCC(=O)O)NC(=O)[C@H](CCC(=O)O)NC(=O)[C@H](Cc3cc(-c4ccc(-c5cccc(Cl)c5)cc4)no3)CP(=O)(O)c3ccc(Br)cc3)c3ccc(S(=O)(=O)[O-])cc3C2(C)C)C(C)(C)c2cc(S(=O)(=O)O)ccc21 [probe 2] 0

Entry to check: CC1(C)C(/C=C/C2=C(Oc3ccc(CCC(=O)NCCCOCCOCCOCCCNC(=O)[C@H](CCC(=O)[O-])NC(=O)[C@H](CCC(=O)O)NC(=O)[C@H](Cc4cc(-c5ccc(-c6cccc(Cl)c6)cc5)no4)CP(=O)(O)c4ccc(Br)cc4)cc3)C(=C/C=C3/N(CCC[N+](C)(C)C)c4ccc(S(=O)(=O)[O-])cc4C3(C)C)/CCC2)=[N+](CCC[N+](C)(C)C)c2ccc(S(=O)(=O)[O-])cc21 [probe 3] 0

###

Entries with their measured Ki, system hMMP-10 (Homo sapiens, UniProt P09238):
# number only, unit nM dropped from output

Worked examples, 3 compounds total:
{"COMPOUND": "CC1(C)C(=CC=C2CCCC(C=CC3=[N+](CCC[N+](C)(C)C)c4ccc(S(=O)(=O)[O-])cc4C3(C)C)=C2Oc2ccc(CCC(=O)NCCCOCCOCCOCCCNC(=O)C(CCC(=O)[O-])NC(=O)C(CCC(=O)O)NC(=O)C(Cc3cc(-c4cccc(Oc5ccccc5)c4)no3)CP(=O)(O)c3ccc(Br)cc3)cc2)N(CCC[N+](C)(C)C)c2ccc(S(=O)(=O)[O-])cc21 (stereo not shown) [probe 4]", "Ki (nM)": 6430}
{"COMPOUND": "CC1(C)C(/C=C/C2=C(Oc3ccc(CCC(=O)NCCCOCCOCCOCCCNC(=O)[C@H](CCC(=O)[O-])NC(=O)[C@H](CCC(=O)O)NC(=O)[C@H](Cc4cc(-c5ccc(-c6cccc(Cl)c6)cc5)no4)CP(=O)(O)c4ccc(Br)cc4)cc3)C(=C/C=C3/N(CCC[N+](C)(C)C)c4ccc(S(=O)(=O)[O-])cc4C3(C)C)/CCC2)=[N+](CCC[N+](C)(C)C)c2ccc(S(=O)(=O)[O-])cc21 [probe 3]", "Ki (nM)": 136}
{"COMPOUND": "NC(=O)[C@H](CCC(=O)O)NC(=O)[C@H](CCC(=O)O)NC(=O)[C@H](Cc1cc(-c2ccc(-c3cccc(Cl)c3)cc2)no1)CP(=O)(O)c1ccc(Br)cc1 [RXP470.1, reference compound]", "Ki (nM)": 17}

Recorded Ki for CC[N+]1=C(/C=C/C=C/C=C2/N(CCCCCC(=O)NCCCOCCOCCOCCCNC(=O)[C@H](CCC(=O)O)NC(=O)[C@H](CCC(=O)O)NC(=O)[C@H](Cc3cc(-c4ccc(-c5cccc(Cl)c5)cc4)no3)CP(=O)(O)c3ccc(Br)cc3)c3ccc4c(S(=O)(=O)[O-])cc(S(=O)(=O)O)cc4c3C2(C)C)C(C)(C)c2c1ccc1c(S(=O)(=O)O)cc(S(=O)(=O)O)cc21 [probe 1] , please? 71
